Reference source: paper PMC9919513

# Test system: HIV-1 vectors that carry WT IN
# protocol: Single-round HIV-1 replication antiviral assay, wild-type IN
# Format: cell-based
# applied conditions: Human immunodeficiency virus 1, HOS, 48 h, read-out: EC50, antiviral potency, WT IN, VSV-g-pseudotyped HIV-1 luciferase vector with WT IN, HOS cells, 48 h
measured endpoint: EC50 (nM)

1. CC(C)n1ccn2cc(C(=O)NCc3ccc(F)cc3F)c(=O)c(O)c2c1=O
3.8
2. O=C(NCc1ccc(F)cc1F)c1cn2c(c(O)c1=O)C(=O)N(CCCCO)CC2
75.7
3. CN1CCn2cc(C(=O)NCc3ccc(F)cc3F)c(=O)c(O)c2C1=O
4.6
4. COCCCCCCn1ccn2cc(C(=O)NCc3ccc(F)cc3F)c(=O)c(O)c2c1=O
4.8
5. O=C(NCc1ccc(F)cc1F)c1cn2c(c(O)c1=O)C(=O)N(CCCCCO)CC2
54.5

* * *

measured endpoint: melting point

1. Cn1ccn2cc(C(=O)NCc3ccc(F)cc3F)c(=O)c(O)c2c1=O
275 to 280 °C
2. CC(C)CC(C)N1CCn2cc(C(=O)NCc3ccc(F)cc3F)c(=O)c(O)c2C1=O (stereo not shown)
190 to 192 °C
3. O=C(NCc1ccc(F)cc1F)c1cn2c(c(O)c1=O)C(=O)N(CCCCO)CC2
210 to 215 °C
4. O=C(NCc1ccc(F)cc1F)c1cn2c(c(O)c1=O)C(=O)N(CCCCCO)CC2
201 to 207 °C
5. CN1CCn2cc(C(=O)NCc3ccc(F)cc3F)c(=O)c(O)c2C1=O
247 to 252 °C
6. COCCCN1CCn2cc(C(=O)NCc3ccc(F)cc3F)c(=O)c(O)c2C1=O
250 to 252 °C
7. COCCCCCCN1CCn2cc(C(=O)NCc3ccc(F)cc3F)c(=O)c(O)c2C1=O
228 to 232 °C
8. O=C(NCc1ccc(F)cc1F)c1cn2c(c(O)c1=O)C(=O)N(CCCCCCO)CC2
208 to 210 °C
9. COCCN1CCn2cc(C(=O)NCc3ccc(F)cc3F)c(=O)c(O)c2C1=O
207 to 210 °C
10. CC(C)CC(C)n1ccn2cc(C(=O)NCc3ccc(F)cc3F)c(=O)c(O)c2c1=O (stereo not shown)
199 to 203 °C

* * *

# System: HIV-1 vectors that carry WT IN
# protocol: Single-round HIV-1 replication antiviral assay, wild-type IN
# Format: cell-based
# applied conditions: Human immunodeficiency virus 1, HOS, 48 h, read-out: EC50, antiviral potency, WT IN, VSV-g-pseudotyped HIV-1 luciferase vector with WT IN, HOS cells, 48 h
Quick list: EC50 per entry.
measured endpoint: EC50 (nM)

1. COCCCCCCN1CCn2cc(C(=O)NCc3ccc(F)cc3F)c(=O)c(O)c2C1=O
4.6
2. O=C(NCc1ccc(F)cc1F)c1cn2c(c(O)c1=O)C(=O)N(CCCCCCO)CC2
31.7
3. CC(C)CC(C)n1ccn2cc(C(=O)NCc3ccc(F)cc3F)c(=O)c(O)c2c1=O (centres unmarked)
4.2
4. COCCN1CCn2cc(C(=O)NCc3ccc(F)cc3F)c(=O)c(O)c2C1=O
3.9

* * *

# System: HIV-1 vectors that carry WT IN
# protocol: Single-round HIV-1 replication antiviral assay, wild-type IN
# Type: cell-based
# applied conditions: Human immunodeficiency virus 1, HOS, 48 h, read-out: EC50, antiviral potency, WT IN, VSV-g-pseudotyped HIV-1 luciferase vector with WT IN, HOS cells, 48 h
Entries whose EC50 is below 5 nM take TRUE; entries at or above 5 nM take FALSE.

1. CC(C)CC(C)N1CCn2cc(C(=O)NCc3ccc(F)cc3F)c(=O)c(O)c2C1=O (stereo not drawn)
FALSE
2. COCCCN1CCn2cc(C(=O)NCc3ccc(F)cc3F)c(=O)c(O)c2C1=O
TRUE
3. CC(C)N1CCn2cc(C(=O)NCc3ccc(F)cc3F)c(=O)c(O)c2C1=O
TRUE
4. O=C(NCc1ccc(F)cc1F)c1cn2ccn(CCCCCCO)c(=O)c2c(O)c1=O
TRUE
5. Cn1ccn2cc(C(=O)NCc3ccc(F)cc3F)c(=O)c(O)c2c1=O
TRUE
